Target: human serotonin reuptake transporter (Homo sapiens, UniProt P31645)
Sequence (P31645 whole entry): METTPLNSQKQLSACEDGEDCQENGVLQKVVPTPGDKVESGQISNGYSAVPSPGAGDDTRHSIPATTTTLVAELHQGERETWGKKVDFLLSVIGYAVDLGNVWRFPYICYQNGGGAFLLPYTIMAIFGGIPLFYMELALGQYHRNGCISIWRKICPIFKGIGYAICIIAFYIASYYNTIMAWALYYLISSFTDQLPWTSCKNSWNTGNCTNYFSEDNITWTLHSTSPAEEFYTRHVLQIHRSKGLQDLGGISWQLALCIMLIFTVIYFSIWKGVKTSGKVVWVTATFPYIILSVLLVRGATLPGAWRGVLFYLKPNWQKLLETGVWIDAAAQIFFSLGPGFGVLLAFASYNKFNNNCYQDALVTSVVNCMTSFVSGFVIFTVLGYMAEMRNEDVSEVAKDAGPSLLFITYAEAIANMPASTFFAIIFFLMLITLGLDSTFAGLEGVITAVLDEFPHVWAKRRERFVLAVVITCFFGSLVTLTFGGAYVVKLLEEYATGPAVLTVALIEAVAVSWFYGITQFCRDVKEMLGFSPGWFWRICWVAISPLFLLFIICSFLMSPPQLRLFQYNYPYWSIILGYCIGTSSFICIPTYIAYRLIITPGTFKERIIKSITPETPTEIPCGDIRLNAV
Test: cell-based
Conditions: recombinant human serotonin transporter (SERT); read-out: Human IC50 (nM) hSERT
Define the label as met when IC50 is strictly less than 300 nM and as not met in all remaining cases.

// known answers, use as guide
Compound	Category
CCC1(O)CCC(CN(C)C)(c2ccc(Cl)c(Cl)c2)CC1 (stereo not drawn) [Compound 283]	met
CCC1(O)CCC(CN)(c2ccc(Cl)c(Cl)c2)CC1 (stereo not drawn) [Compound 278]	not met
NCC1(c2ccc(Cl)c(Cl)c2)CCCC(O)C1 (single isomer, unassigned) [184 E1]	not met
CCCC1(O)CCC(CN)(c2ccc(Cl)c(Cl)c2)CC1 (stereo not drawn) [Compound 284]	not met

## Input For this compound, is IC50 lower than 300 nM? OC1CCCCC1NCC1(c2ccc(Cl)c(Cl)c2)CCCCC1 (racemic) [Compound 117]
## Output not met

## Input Quick check: does CN(C)CC1(c2ccc3ccccc3c2)CCC(Cl)CC1 (stereo not drawn) [Compound 230] have IC50 under 300 nM?
## Output met

## Input is_below(IC50, 300 nM) for COC1CCC(CN)(c2ccc(Cl)c(Cl)c2)CC1 (stereo not drawn) [Compound 257] ?
## Output not met

## Input Record CC1(O)CCCC(CN)(c2ccc(Cl)c(Cl)c2)C1 (single isomer, unassigned) [193 E1] : is its IC50 strictly below 300 nM?
## Output not met
